In this section, each of the molecules is paired with its reported Inhibitory activity PDE10A % of PPV.
molecular target: PDE10A (Homo sapiens, UniProt Q9Y233); construct: purchased BPS Bioscience; test: PDE10A enzymatic assay (PDE10A activity assay kit, BPS Bioscience); assay type: biochemical; settings: PDE10A inhibition at 1 μM, normalized to PPV
Sequence (Q9Y233 267-1055): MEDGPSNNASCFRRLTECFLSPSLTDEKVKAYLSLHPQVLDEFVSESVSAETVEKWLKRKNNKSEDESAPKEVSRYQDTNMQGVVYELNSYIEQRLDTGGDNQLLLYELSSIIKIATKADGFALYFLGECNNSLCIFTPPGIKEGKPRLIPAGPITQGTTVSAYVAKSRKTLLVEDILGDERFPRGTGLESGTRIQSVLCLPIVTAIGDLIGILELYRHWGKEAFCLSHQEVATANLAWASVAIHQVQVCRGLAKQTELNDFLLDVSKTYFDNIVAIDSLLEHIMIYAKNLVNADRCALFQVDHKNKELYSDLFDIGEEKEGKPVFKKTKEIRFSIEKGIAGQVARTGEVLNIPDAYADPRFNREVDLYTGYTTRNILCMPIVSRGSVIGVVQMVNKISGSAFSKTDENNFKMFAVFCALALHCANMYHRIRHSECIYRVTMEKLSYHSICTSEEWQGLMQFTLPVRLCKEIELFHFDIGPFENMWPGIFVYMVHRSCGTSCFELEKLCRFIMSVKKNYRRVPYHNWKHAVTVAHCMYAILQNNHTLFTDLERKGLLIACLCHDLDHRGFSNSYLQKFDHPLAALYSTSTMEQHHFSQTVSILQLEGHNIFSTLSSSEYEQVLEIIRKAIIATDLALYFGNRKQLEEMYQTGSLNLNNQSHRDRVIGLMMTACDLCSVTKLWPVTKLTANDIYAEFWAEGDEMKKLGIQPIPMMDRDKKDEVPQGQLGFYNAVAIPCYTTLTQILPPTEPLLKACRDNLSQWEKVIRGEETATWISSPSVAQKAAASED

Solved cases below.
# return recorded Inhibitory activity PDE10A % of PPV for entry COc1cc2ccnc(Cc3cc(C)c(OCC(C)C)c(C)c3)c2cc1OC 29.13 % of PPV

# return recorded Inhibitory activity PDE10A % of PPV for entry COc1cc2ccnc(Cc3ccc4c(c3)OCO4)c2cc1OC 69.54 % of PPV

# return recorded Inhibitory activity PDE10A % of PPV for entry COc1cc2ccnc(C(=O)c3cc(OC)c(OC)c(OC)c3)c2cc1OC 63.39 % of PPV

# return recorded Inhibitory activity PDE10A % of PPV for entry COc1cc2ccnc(C(=O)c3cc(C)cc(C)c3)c2cc1OC 30.52 % of PPV

Others:
# return recorded Inhibitory activity PDE10A % of PPV for entry C=C(C)COc1c(C)cc(Cc2nccc3cc(OC)c(OC)cc23)cc1C 59.69 % of PPV

# return recorded Inhibitory activity PDE10A % of PPV for entry COc1cc2c(cc1OC)C(Cc1cc(C)cc(C)c1)=NCC2 40.00 % of PPV

# return recorded Inhibitory activity PDE10A % of PPV for entry COc1cc2ccnc(C(O)c3cc(C)cc(C)c3)c2cc1OC (stereo not drawn) 0 % of PPV

# return recorded Inhibitory activity PDE10A % of PPV for entry COc1cc2ccnc(Cc3cc(OC)c(OC)c(OC)c3)c2cc1OC 37.37 % of PPV

# return recorded Inhibitory activity PDE10A % of PPV for entry COc1cc2ccnc(Cc3ccc4ccccc4c3)c2cc1OC 100 % of PPV

# return recorded Inhibitory activity PDE10A % of PPV for entry COc1cc2ccncc2cc1OC [DMIQ, reference compound] 0 % of PPV

# return recorded Inhibitory activity PDE10A % of PPV for entry COc1cc2ccnc(C(O)c3cc(C)c(OC)c(C)c3)c2cc1OC (stereo not drawn) 29.18 % of PPV

# return recorded Inhibitory activity PDE10A % of PPV for entry COc1cc2ccnc(C(O)c3cc(OC)c(OC)c(OC)c3)c2cc1OC (stereo not drawn) 72.86 % of PPV

# return recorded Inhibitory activity PDE10A % of PPV for entry COc1cc2c(cc1OC)C(Cc1cc(C)c(OC)c(C)c1)=NCC2 37.27 % of PPV

# return recorded Inhibitory activity PDE10A % of PPV for entry COc1cc2ccnc(Cc3cc(C)cc(C)c3)c2cc1OC 121.49 % of PPV

---

In this section, each of the molecules is paired with its reported IC50.
test system: A549 cells; assay: Seahorse OCR in A549 cells (dose response, IC50, washout); assay type: cell-based, Human; conditions: Homo sapiens; A549 cells by Seahorse, n=5 replicates; read-out: mitochondrial IC50 (OCR IC50)
Provide only the numeric value, understood in µM.

# return recorded IC50 for entry COc1cc2ccnc(Cc3cccc4ccccc34)c2cc1OC 7.4

Shifting focus to the molecule that follows.
# return recorded IC50 for entry COc1cc2ccnc(Cc3cc(C)cc(C)c3)c2cc1OC 94

---

In this section, each of the compounds is paired with its reported Inhibitory activity PDE10A % of PPV.
molecular target: PDE10A (Homo sapiens); construct: purchased BPS Bioscience; assay: PDE10A enzymatic assay (PDE10A activity assay kit, BPS Bioscience); format: biochemical; settings: PDE10A inhibition at 1 μM, normalized to PPV

Solved cases below.
# return recorded Inhibitory activity PDE10A % of PPV for entry COc1ccc(C(O)c2nccc3cc(OC)c(OC)cc23)cc1 (stereo not shown) 35.44 % of PPV

# return recorded Inhibitory activity PDE10A % of PPV for entry COc1cc2ccnc(C(=O)c3cc(C)c(OC)c(C)c3)c2cc1OC 50.92 % of PPV

# return recorded Inhibitory activity PDE10A % of PPV for entry COc1cc2ccnc(C(=O)c3ccc4ccccc4c3)c2cc1OC 0 % of PPV

Others:
# return recorded Inhibitory activity PDE10A % of PPV for entry COc1cc2ccnc(C(=O)c3cc(C(F)(F)F)cc(C(F)(F)F)c3)c2cc1OC 17.69 % of PPV

# return recorded Inhibitory activity PDE10A % of PPV for entry COc1cc2ccnc(C(O)c3ccccc3)c2cc1OC (stereo not shown) 23.60 % of PPV

# return recorded Inhibitory activity PDE10A % of PPV for entry COc1cc2ccnc(Cc3cc(C)c(O)c(C)c3)c2cc1OC 85.02 % of PPV

# return recorded Inhibitory activity PDE10A % of PPV for entry COc1cc2ccnc(C(O)c3cccc4ccccc34)c2cc1OC (stereo not shown) 24.24 % of PPV

# return recorded Inhibitory activity PDE10A % of PPV for entry C=C(C)[C@H]1Cc2c(ccc3c2O[C@@H]2COc4cc(OC)c(OC)cc4[C@@H]2C3=O)O1 0 % of PPV

# return recorded Inhibitory activity PDE10A % of PPV for entry COc1ccc(-c2nccc3cc(OC)c(OC)cc23)cc1OC 69.55 % of PPV

# return recorded Inhibitory activity PDE10A % of PPV for entry COc1cc2ccnc(C(=O)c3cccc4ccccc34)c2cc1OC 0 % of PPV

# return recorded Inhibitory activity PDE10A % of PPV for entry COc1cc2ccnc(Cc3cccc4ccccc34)c2cc1OC 38.66 % of PPV

# return recorded Inhibitory activity PDE10A % of PPV for entry C=C(C)COc1c(C)cc(C(=O)c2nccc3cc(OC)c(OC)cc23)cc1C 74.38 % of PPV

# return recorded Inhibitory activity PDE10A % of PPV for entry COc1ccc(CCc2nccc3cc(OC)c(OC)cc23)cc1OC 20.16 % of PPV

# return recorded Inhibitory activity PDE10A % of PPV for entry COc1ccc(C(=O)c2nccc3cc(OC)c(OC)cc23)cc1 65.88 % of PPV

# return recorded Inhibitory activity PDE10A % of PPV for entry COc1cc2c(cc1OC)C(Cc1ccc3c(c1)OCO3)=NCC2 12.77 % of PPV

# return recorded Inhibitory activity PDE10A % of PPV for entry COc1cc2ccnc(C(O)c3ccc4c(c3)OCO4)c2cc1OC (stereo not shown) 67.90 % of PPV

# return recorded Inhibitory activity PDE10A % of PPV for entry COc1cc2ccnc(C(O)c3cc(C(F)(F)F)cc(C(F)(F)F)c3)c2cc1OC (stereo not shown) 16.58 % of PPV

# return recorded Inhibitory activity PDE10A % of PPV for entry COc1ccc(Cc2nccc3cc(OC)c(OC)cc23)cc1 79.93 % of PPV

# return recorded Inhibitory activity PDE10A % of PPV for entry COc1cc2ccnc(Cc3cc(C(F)(F)F)cc(C(F)(F)F)c3)c2cc1OC 10.28 % of PPV

---

In this section, each of the compounds is paired with its reported Inhibitory activity PDE10A % of PPV.
target: PDE10A (Homo sapiens, UniProt Q9Y233); construct: purchased BPS Bioscience; test: PDE10A enzymatic assay (PDE10A activity assay kit, BPS Bioscience); format: biochemical; conditions: PDE10A inhibition at 1 μM, normalized to PPV

Solved cases below.
# return recorded Inhibitory activity PDE10A % of PPV for entry COc1cc2ccnc(C(=O)c3ccc4c(c3)OCO4)c2cc1OC 51.12 % of PPV

# return recorded Inhibitory activity PDE10A % of PPV for entry COc1cc2ccnc(C(=O)c3ccccc3)c2cc1OC 26.28 % of PPV

# return recorded Inhibitory activity PDE10A % of PPV for entry C=C(C)COc1c(C)cc(C(O)c2nccc3cc(OC)c(OC)cc23)cc1C (stereo not drawn) 73.33 % of PPV

# return recorded Inhibitory activity PDE10A % of PPV for entry COc1cc2ccnc(C(O)c3ccc4ccccc4c3)c2cc1OC (stereo not drawn) 70.84 % of PPV

# return recorded Inhibitory activity PDE10A % of PPV for entry COc1ccc(OCc2nccc3cc(OC)c(OC)cc23)cc1OC 17.18 % of PPV

Shifting focus to the compound that follows.
# return recorded Inhibitory activity PDE10A % of PPV for entry COc1cc2ccnc(Cc3cc(C)c(OC)c(C)c3)c2cc1OC 64.65 % of PPV
